Hello, the source for this data is PubChem BioAssay AID1508591, in case you need it.

# log10(half-life) values compiled below
Conditions: rat; liver microsomes; pH 7.4; 15.0 min; 1.0 µM
quantity measured: log10(half-life) (log10 of the value in min)

>>> df
                                    molecule  recorded_measurement
 0  COc1ccc(S(=O)(=O)N2CCOCC2)cc1NC(=O)c1cccc(-n2cccc2)c1                  0.53
 1  Cc1cnc(-c2ccccc2C(C)C)nc1NCc1ccc(-n2ccnn2)cc1                  1.01
 2  COc1cccc(CNc2ccc(S(=O)(=O)Nc3cccs3)cc2)c1O                  0.20
 3  CCOc1ccc(CCNC(=O)c2cc3sccc3n2Cc2ccc(F)cc2F)cc1OCC                  0.26
 4  Oc1ccccc1NCC(O)Cn1ccc2ccccc21 (stereo unspecified)                  0.37
 5  CCOC(=O)c1c(C)c(-c2ccccc2)n(CC(=O)NCc2ccccc2)c1C                  0.36
 6                CNc1ncc(-c2cccc3ccccc23)o1                  1.00
 7  COc1ccc(C)cc1NC(=O)c1cnc(-c2ccc(F)cc2)nc1-c1ccncc1                  0.77
 8  CCOc1ccc(CCNC(=O)c2ccnn2Cc2ccccn2)cc1OCC                  0.75
 9  CC(C)C[C@H]1C(=O)N2CCC[C@H]2[C@]2(O)O[C@](NC(=O)[C@@H]3C=C4c5cccc6[nH]c(Br)c(c56)C[C@H]4N(C)C3)(C(C)C)C(=O)N12                  0.20
10  CCCCC(C)/C=C(C)/C=C(\C)C(=O)NC1=CC(O)(/C=C/C=C/C=C/C(=O)NC2=C(O)CCC2=O)C2OC2C1=O (stereo unspecified)                  0.26
11  Cc1sc(NC(=O)Cc2ccc3c(c2)OCO3)nc1-c1ccc2c(c1)CCN2                  0.93
12  COc1ccccc1N1CCN(CCN(C(=O)c2ccc(I)cc2)c2ccccn2)CC1                  0.17
13  Nc1nc2c(s1)C(c1ccccc1OCc1ccccc1Cl)CC(=O)N2 (stereo unspecified)                  0.80
14  NC(=O)C1CCN(c2ncc(-c3ccc4c(c3)OCO4)s2)CC1                  0.88
15  CCN(CC)S(=O)(=O)c1ccc(N2CCCC2)c(NS(=O)(=O)c2ccccc2)c1                  0.04
16  Cn1cnc(-c2nccc3c(=O)[nH]c(OCCCC(F)(F)F)nc23)c1                  1.22
17  CCOC(=O)c1ccc(N2C(=O)c3n[nH]c(-c4cccs4)c3C2c2ccc(Cl)cc2Cl)cc1 (stereo unspecified)                  1.30
18     CCc1oc2ccccc2c1C(=O)c1cc(I)c(O)c(I)c1                  1.14
19  Cc1ccccc1CN1C2=NCCN2C(=O)C2=C1CCN(Cc1ccccc1)C2                  0.83

====

Conditions: rat; liver microsomes; pH 7.4; 15.0 min; 1.0 µM
Kindly return class 1 if reported half-life is no lower than 10 min; return class 0 if it is lower.

In [3]: df
Out[3]:
                                    molecule  label_class
 0  CCn1ncc(NC(=O)Cn2ncc3cc(-c4cccc(OC)c4)ccc32)n1      class 1
 1  N#C/C(=C\c1ccc(-c2ccc(C(=O)O)cc2)o1)c1nc2ccccc2[nH]1      class 1
 2  Cc1c(C)n(Cc2ccc(-c3ccccc3C(=O)O)cc2)c2ccc(C(=O)N[C@@H](C)c3ccc([N+](=O)[O-])cc3)cc12      class 1
 3  COc1cccc(CNc2ccc(S(=O)(=O)Nc3nc(C)c(C)s3)cc2)c1O      class 1
 4  COc1cccc(NS(=O)(=O)c2ccc(C)cc2)c1C(=O)Nc1nc(-c2ccccc2)cs1      class 0
 5  Cc1ccc(S(=O)(=O)Nc2cnccc2C(=O)Nc2nc(-c3ccc(Oc4ccccc4)cc3)cs2)cc1      class 0
 6  CC1Cc2cc(S(=O)(=O)NCc3ccc(N(C)C)cc3)ccc2N1C(=O)C1CCC1 (stereo not given)      class 0
 7  Cn1ccc2cc(-c3csc(N4CCC(C(N)=O)CC4)n3)ccc21      class 0
 8  c1cc(-c2cc(-c3ccncc3)c3cncn3c2)c2[nH]ccc2c1      class 0
 9  CN1C(=O)c2ccccc2[S@](=O)c2ccc(C(=O)NCc3ccc(Br)cc3)cc21      class 1
10  CC(C)(C)c1ccc(-n2cnc3cc(C(=O)N4CCCCC4)ccc32)cc1      class 0
11  CN(C)C(=O)c1cc2cnc(Nc3ccc(N4CCNCC4)cn3)nc2n1C1CCCC1      class 1
12  Cc1cc(CNC(=O)c2ccc3c(c2)n(CC2CC2)c(=O)n3C2CCCCC2)on1      class 1
13  Cc1noc(/C=C/c2ccccc2F)c1S(=O)(=O)N1CCC(C(=O)Nc2ccc(C#N)cc2)CC1      class 1
14  Cc1ccc(S(=O)(=O)Nc2cncc(C(=O)Nc3nc(-c4ccccc4)cs3)c2)cc1      class 1
15       CSc1ccc(C(=O)c2[nH]c(=O)[nH]c2C)cc1      class 1
16  Nc1cc(-c2nc(Nc3ccc(F)c(F)c3)c3ccccc3n2)ccn1      class 1
17  Cc1ccccc1N(C)C1CN([S+](=O)([O-])c2cccc(C(F)(F)F)c2)C1      class 0
18  CCOc1ccccc1C(=O)Nc1ccccc1C(=O)Nc1cccc(C(F)(F)F)c1      class 1
